Entries and their measured AC50 follow.
Test system: H460 (NRF2 pathway mutant cell line with high AKR1C3 expression)
Assay: In vitro cell proliferation assay (CellTiter-Glo), H460
Format: cell-based
Settings: Homo sapiens, NCI-H460, 72 h; H460 cells, 3 days, CellTiter-Glo, top concentration 10 μM; read-out: H460 Qualified absolute AC50
Entry rule: numbers only, all in µM.

Check out these entries, answers already filled in.
compound: CN1c2ccc(F)cc2C(=O)CC12CCN(C(=O)NCc1ccc(F)c([C@@H](N)C(F)(F)F)c1)CC2
valueReported: 5.43
//
compound: O=C1CC2(CCN(C(=O)NCc3ccc(F)nc3)CC2)Nc2c(F)cc(F)cc21
valueReported: 1.17
//
compound: Nc1ccc(CNC(=O)N2CCC3(CC2)CC(=O)c2cc(F)ccc2N3)c(Cl)c1
valueReported: 0.733
//
compound: O=C1CC2(CCN(C(=O)NCc3cc(NCCO)c(F)cc3F)CC2)Nc2ccc(F)cc21
valueReported: 0.311

Query: AC50; subject: `O=C1CC2(CCN(C(=O)NCc3cccc(-n4cncn4)c3)CC2)Nc2c(F)cc(F)cc21` 3.05

Query: AC50; subject: `Cc1ncc(CNC(=O)c2cc(CNC(=O)N3CCC4(CC3)CC(=O)c3cc(F)ccc3N4)ccc2F)o1` 1.08

Query: AC50; subject: `Cc1coc(C)c1CNC(=O)N1CCC2(CC1)CC(=O)c1cc(F)ccc1N2` 0.075

Query: AC50; subject: `Cc1occc1CNC(=O)N1CCC2(CC1)CC(=O)c1cc(F)ccc1N2` 0.185

Query: AC50; subject: O=C(NCc1ccc(F)c(CO)c1)N1CCC2(CC1)CC(O)c1cc(F)ccc1N2 (racemic) 0.053

Query: AC50; subject: `CN1c2ccc(F)cc2C(=O)CC12CCN(C(=O)NCc1ccc(F)c(N)c1F)CC2` 0.094

Query: AC50; subject: `Cn1ncc(Cl)c1CNC(=O)N1CCC2(CC1)CC(=O)c1cc(F)ccc1N2` 5.73
